Source listed as PubChem BioAssay AID651766.

# SUBJECT OF TEST: Perilipin-1 (Homo sapiens) + 1-acylglycerol-3-phosphate O-acyltransferase ABHD5 (Homo sapiens) (UniProt O60240+Q8WTS1)
# ASSAY DETAILS: ABHD5-PLIN1 binding inhibitors, late-stage follow-up, counter-screen for ABHD5-PLIN5 interaction inhibitor project, biochemical, luminescence, dose response (AID 651766)
Activity calls are given as the source filed them. The rule behind the calls is not given here.
Outcome codes: 1 (active), -1 (inactive)

>>> discrete_label("CN(C)CCCN(C(=O)CCc1ccccc1)c1nc2ccc(Cl)cc2s1")
1
>>> discrete_label("CCOC(=O)c1c(NC(=O)/C=C/C(=O)O)sc(C)c1-c1ccc(C(C)(C)C)cc1")
1
>>> discrete_label("CN1CCC(=C2c3ccccc3CC(=O)c3sccc32)CC1")
-1
>>> discrete_label("COCCN(CCOC)c1nc(N)c2c(N)nc3c(c2c1C#N)CC(=O)N3Cc1ccc(Cl)cc1")
-1
>>> discrete_label("O=C(/C(=C/O)N=Nc1ccc(Cl)cc1)c1ccncc1")
1
>>> discrete_label("CC(CCc1ccco1)NC(=O)CCc1nnc2ccc(NCc3ccccc3Cl)nn12 (stereo not given)")
1
>>> discrete_label("Cc1ccc2nc3cc([N+](=O)[O-])cc([N+](=O)[O-])c3cc2c1")
1
>>> discrete_label("CN(C)CCN(Cc1ccco1)c1ccccn1")
-1
>>> discrete_label("COc1ccc(NC(=S)N(CCCN2CCCC2)Cc2cccn2Cc2ccc(Cl)cc2)cc1Cl")
-1
>>> discrete_label("CC(=O)Oc1ccc(C23c4ccccc4C2(OC(C)=O)c2cc(OC(C)=O)ccc23)cc1 (stereo not given)")
-1
